# Tested on: vertebral and femoral blood flow
# test: Vertebral and femoral blood flow in anesthetized dogs
# Format: in vivo, mongrel dog
# condition-summary: 0.01 mg/kg i.v. (0.01 or 0.03 mg/kg); significance vs SKF 24260
Where a name gives a salt, the structure may show the parent alone.
parameter: Separation ratio (percent increase of vertebral blood flow / that of femoral blood flow)

* CCOC(=O)C1=C(C)NC(C)=C(C(=O)OCC)C1c1ccccc1C(F)(F)F [SKF 24260, reference compound] | 0.93
* COC(=O)C1=C(C)NC(C)=C(C(=O)OCCN(C)Cc2ccccc2)C1c1ccccc1[N+](=O)[O-] (centres unmarked) [Example 36, hydrochloride] | 2.21
* COC(=O)C1=C(C)NC(C)=C(C(=O)OCCN(C)Cc2ccccc2)C1c1ccccc1C(F)(F)F (centres unmarked) [Example 24, hydrochloride] | 2.04
* COC(=O)C1=C(C)NC(C)=C(C(=O)OCCN(C)Cc2ccccc2)C1c1cccc([N+](=O)[O-])c1 (centres unmarked) [Example 2, hydrochloride] | 4.19
* COC(=O)C1=C(C)NC(C)=C(C(=O)OC)C1c1ccccc1C#N [reference compound] | 1.20
